The origin of these recorded values is ChEMBL document CHEMBL1667766.

System: Aspergillus niger
experiment: Antifungal activity against Aspergillus niger after 72 hrs by microdilution method
Format: functional
Where a SMILES comes first, the peptide text is derived from it. The star is where a group is joined. Boc = CC(C)(C)OC(=O)*
measurement.kind: MIC

Field: example entries. Status: answers known.
CC(C)(C)OC(=O)NCC(=O)N[C@@H](Cc1ccccc1)C(=O)NCC(=O)N[C@@H](Cc1ccccc1)C(=O)N1CCC[C@H]1C(=O)O (Boc-GFGFP-OH) = > 50 µg/mL
Fc1ccc2c(C3CCNCC3)noc2c1 = > 50 µg/mL

Now for another entry.
Enquiry: Consider the molecule shown here: CC(C)(C)OC(=O)N[C@@H](Cc1ccccc1)C(=O)O What is its recorded MIC?
Return: > 50 µg/mL

====

System: Klebsiella pneumoniae
experiment: Antimicrobial activity against Klebsiella pneumoniae after 24 hrs by agar well diffusion method
Assay type: functional
Where a SMILES comes first, the peptide text is derived from it. The star is where a group is joined. X1 = Fc1ccc2c(C3CCN(*)CC3)noc2c1
measurement.kind: inhibition zone (IZ) (mm)
One number for each entry, in mm.

Consider the following illustrative entries.
NCC(=O)N[C@@H](Cc1ccccc1)C(=O)NCC(=O)N[C@@H](Cc1ccccc1)C(=O)N1CCC[C@H]1C(=O)N1CCC(c2noc3cc(F)ccc23)CC1.O=C(O)C(F)(F)F (H-GFGFP-X1) = 18
CC(C)[C@H](NC(=O)CN)C(=O)NCC(=O)N[C@H](C(=O)N1CCC[C@H]1C(=O)N1CCC(c2noc3cc(F)ccc23)CC1)C(C)C.O=C(O)C(F)(F)F (H-GVGVP-X1) = 17

Enquiry: Consider the compound N[C@@H](Cc1c[nH]c2ccccc12)C(=O)N1CCC(c2noc3cc(F)ccc23)CC1.O=C(O)C(F)(F)F and give its measured inhibition zone (IZ).
Return: 5

====

Test system: Klebsiella pneumoniae
experiment: Antimicrobial activity against Klebsiella pneumoniae after 24 hrs by agar well diffusion method
Type: functional
Where a SMILES comes first, the peptide text is derived from it. The star is where a group is joined. X1 = Fc1ccc2c(C3CCN(*)CC3)noc2c1
measurement.kind: inhibition zone (IZ)

Worked cases, inhibition zone (IZ) given:
C[C@H](NC(=O)CNC(=O)CN)C(=O)N1CCC[C@H]1C(=O)N1CCC(c2noc3cc(F)ccc23)CC1.O=C(O)C(F)(F)F (H-GGAP-X1) = 12 mm
NCC(=O)NCC(=O)N[C@@H](Cc1ccccc1)C(=O)N1CCC[C@H]1C(=O)N1CCC(c2noc3cc(F)ccc23)CC1.O=C(O)C(F)(F)F (H-GGFP-X1) = 15 mm

Quick request: inhibition zone (IZ) for each listed item, please.
1. CC[C@@H](C)[C@H](NC(=O)CNC(=O)CN)C(=O)N1CCC[C@H]1C(=O)N1CCC(c2noc3cc(F)ccc23)CC1.O=C(O)C(F)(F)F
2. N[C@@H](Cc1ccccc1)C(=O)N1CCC(c2noc3cc(F)ccc23)CC1.O=C(O)C(F)(F)F
3. CC1(C)S[C@@H]2[C@H](NC(=O)[C@H](N)c3ccc(O)cc3)C(=O)N2[C@H]1C(=O)O
4. Fc1ccc2c(C3CCNCC3)noc2c1
5. N[C@@H](Cc1ccc(O)cc1)C(=O)N1CCC(c2noc3cc(F)ccc23)CC1.O=C(O)C(F)(F)F

Return:
1: 14 mm; 2: 10 mm; 3: 8 mm; 4: 3 mm; 5: 4 mm
